ASSAY SYSTEM: Peptidyl-prolyl cis-trans isomerase NIMA-interacting 1 (Homo sapiens)
Sequence (Q13526 whole entry, the tested form may be a part): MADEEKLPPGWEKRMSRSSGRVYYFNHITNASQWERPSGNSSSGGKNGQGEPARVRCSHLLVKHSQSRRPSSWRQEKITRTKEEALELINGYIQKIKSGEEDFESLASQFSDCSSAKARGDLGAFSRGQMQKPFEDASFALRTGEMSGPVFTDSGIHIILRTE
PROTOCOL DETAILS: Ratio of test compound IC50 to ZL-Pin01 IC50 for N-terminal-GST-fused human Pin1 expressed in Escherichia coli BL21(DE3) by fluorescence polarization assay
READOUT LABEL: Ratio IC50

Study these solved cases before continuing.
N#Cc1ccc(-c2ccc(CN3C(=O)CSC34CCN(C(=O)CCl)CC4)o2)cc1 : 0.33
O=C(CCl)N1CCC2(CC1)SCC(=O)N2Cc1ccc(Cl)o1 : 0.42
O=C(CCl)N1CCC2(CC1)SCC(=O)N2Cc1ccc(Br)o1 : 0.46

[a] O=C(CCl)N1CCC2(CC1)SCC(=O)N2Cc1ccc(-c2ccc(C(F)(F)F)cc2)o1
[b] CS(=O)(=O)c1ccc(-c2ccc(CN3C(=O)CSC34CCN(C(=O)CCl)CC4)o2)cc1
[c] O=C(CCl)N1CCC2(CC1)SCC(=O)N2Cc1ccc(-c2ccc(-c3ccccc3)cc2)o1
Ascending by Ratio IC50, please. Lab note: final answer is the ordered label list.
b, a, c

[a] Cc1ccc(-c2ccc(CN3C(=O)CSC34CCN(C(=O)CCl)CC4)o2)cc1
[b] O=C(CCl)N1CCC2(CC1)SCC(=O)N2CCc1ccc(-c2ccccc2)o1
[c] O=C(CCl)N1CCC2(CC1)SCC(=O)N2Cc1ccc(-c2ccc3ccccc3c2)o1
[d] O=C(CCl)N1CCC2(CC1)SCC(=O)N2Cc1ccc(-c2cccc3ccccc23)o1
Arrange items by their Ratio IC50 values in increasing order. Reply with the labels, ordered as the question asks.
d, a, c, b

----------
ASSAY SYSTEM: Peptidyl-prolyl cis-trans isomerase NIMA-interacting 1 (Homo sapiens)
READOUT LABEL: IC50 (µM)

[P] Cc1ccc(-c2ccc(CN3C(=O)CSC34CCN(C(=O)CCl)CC4)o2)cc1
[Q] N#Cc1ccc(-c2ccc(CN3C(=O)CSC34CCN(C(=O)CCl)CC4)o2)cc1
Select the item with the higher value of IC50 from the options P and Q listed. Response format: the label of the selected entry.
Q

----------
ASSAY SYSTEM: Peptidyl-prolyl cis-trans isomerase NIMA-interacting 1 (Homo sapiens)
PROTOCOL DETAILS: Ratio of test compound IC50 to ZL-Pin01 IC50 for N-terminal-GST-fused human Pin1 expressed in Escherichia coli BL21(DE3) by fluorescence polarization assay
Documented Ratio IC50 across a set of compounds

C=CC(=O)N1CCC2(CC1)SCC(=O)N2Cc1ccc(-c2ccccc2)o1 : > 10
CC(=O)N1CCC2(CC1)SCC(=O)N2Cc1ccco1 : > 10
CC(Cl)C(=O)N1CCC2(CC1)SCC(=O)N2Cc1ccc(-c2ccccc2)o1 (stereo unspecified) : > 10
O=C(CCl)N1CCC2(CC1)SCC(=O)N2Cc1ccc(-c2ccccc2)o1 : 0.2
COc1ccc(-c2ccc(CN3C(=O)CSC34CCN(C(=O)CCl)CC4)o2)cc1 : 0.19

Below: the item to evaluate.
For record "CC(=O)N1CCC2(CC1)SCC(=O)N2Cc1ccc(-c2cccc3ccccc23)o1" the listed Ratio IC50 is > 10

----------
As a worked illustration, we turn to IC50 data collected for Peptidyl-prolyl cis-trans isomerase NIMA-interacting 1 (Homo sapiens).
READOUT LABEL: IC50 (nM)

O=C(CCl)N1CCC2(CC1)SCC(=O)N2Cc1ccco1 : 1330

[P] CS(=O)(=O)c1ccc(-c2ccc(CN3C(=O)CSC34CCN(C(=O)CCl)CC4)o2)cc1
[Q] COc1ccc(-c2ccc(CN3C(=O)CSC34CCN(C(=O)CCl)CC4)o2)cc1
[R] O=C(CCl)N1CCC2(CC1)SCC(=O)N2Cc1ccc(-c2ccc(C(F)(F)F)cc2)o1
Form: Sort by [IC50] Order [ ascending ] List the labels, following the order given in the request.
Q, P, R
(Q: 250 nM, P: 360 nM, R: 720 nM)
